These entries and their values trace back to patent US8163906B2.

Recorded melting point values for a group of molecules are listed next.

Example entries begin here.
1) CCNC(=O)c1ccc(Cc2c(C(=O)OC)n(-c3ccccc3)c3nc(C)ccc3c2=O)cn1 [Compound 101] | 208 to 209 °C
2) COC(=O)c1c(CN2CCOCC2)c(=O)c2ccc(F)cc2n1-c1ccccc1 [Compound 123] | 169 to 170 °C
3) COC(=O)c1c(CN2CCC(S(C)(=O)=O)CC2)c(=O)c2ccc(F)cc2n1-c1ccccc1 [Compound 126] | 190 to 191 °C

Request the reported melting point associated with C=CCn1c(C(=O)OC)c(Cc2ccc(S(C)(=O)=O)cc2)c(=O)c2ccc(C)nc21 [Compound 139] 168 to 169 °C

* * *

endpoint.name: melting point

Observe how each entry below is paired with its result.
1. CC(=O)c1c(Cc2ccc(S(=O)(=O)N3CCN(C)CC3)cc2)c(=O)c2ccc(Cl)cc2n1-c1ccccc1 | 206.3 to 208 °C
2. O=c1c(Cc2ccccc2)c(-c2ncco2)n(-c2ccccc2)c2cc(Cl)ccc12 | 219 to 220 °C
3. COC(=O)c1c(Cc2ccc(S(=O)(=O)N3CCNCC3(C)C)cc2)c(=O)c2ccc(F)cc2n1-c1ccccc1.Cl | 211 to 212 °C

I am curious: what melting point value has been reported for `COC(=O)c1c(Cc2ccc(S(=O)(=O)N3CCNCC3)cc2)c(=O)c2ccc(F)cc2n1-c1ccccc1.Cl` ? 214 to 215 °C

What value of measured melting point is listed for `COC(=O)c1c(Cc2ccc(S(=O)(=O)N3CCC(O)CC3)cc2)c(=O)c2ccc(Cl)cc2n1-c1ccccc1` ? 170 to 171 °C

Can you share its melting point? I mean this molecule: `COC(=O)c1c(Cc2ccc(S(=O)(=O)NCC(C)(C)O)cc2)c(=O)c2ccc(Cl)cc2n1-c1ccccc1` 240 to 242.6 °C

May I ask what melting point has been recorded for `COC(=O)c1ccc(Cc2c(C(=O)OC)n(-c3ccccc3)c3nc(C)ccc3c2=O)cn1` ? 177 to 178 °C

Need melting point of `COC(=O)c1c(CN2CCC(N3CCOCC3)CC2)c(=O)c2ccc(F)cc2n1-c1ccccc1` , thanks. 161 to 163 °C

Report melting point for `COC(=O)c1c(Cc2ccc(S(=O)(=O)N3CC[C@H](O)C3)cc2)c(=O)c2ccc(Cl)cc2n1-c1ccccc1` please. 135 to 136 °C

Suppose we examine the molecule `COC(=O)c1c(Cc2ccccc2)c(=O)c2ccc(Cl)cc2n1-c1ccccc1` ; what melting point value has been reported? 200 to 201 °C

Please report the recorded melting point for `COC(=O)c1c(Cc2ccc(S(=O)(=O)N3CCN(C(=O)OC(C)(C)C)CC3)cc2)c(=O)c2ccc(F)cc2n1-c1ccccc1` . 120 to 121 °C

Dear colleague, I am looking for the recorded melting point of the following molecule: COC(=O)c1c(Cc2ccc(S(=O)(=O)C(C)CO)cc2)c(=O)c2ccc(C)nc2n1-c1ccccc1 (stereo not drawn) 195.9 to 197.2 °C

* * *

Listed below: pIC50 values for each entry.
- target.or.test.system: UniProtKB P45984
- Sequence (P45984 whole entry): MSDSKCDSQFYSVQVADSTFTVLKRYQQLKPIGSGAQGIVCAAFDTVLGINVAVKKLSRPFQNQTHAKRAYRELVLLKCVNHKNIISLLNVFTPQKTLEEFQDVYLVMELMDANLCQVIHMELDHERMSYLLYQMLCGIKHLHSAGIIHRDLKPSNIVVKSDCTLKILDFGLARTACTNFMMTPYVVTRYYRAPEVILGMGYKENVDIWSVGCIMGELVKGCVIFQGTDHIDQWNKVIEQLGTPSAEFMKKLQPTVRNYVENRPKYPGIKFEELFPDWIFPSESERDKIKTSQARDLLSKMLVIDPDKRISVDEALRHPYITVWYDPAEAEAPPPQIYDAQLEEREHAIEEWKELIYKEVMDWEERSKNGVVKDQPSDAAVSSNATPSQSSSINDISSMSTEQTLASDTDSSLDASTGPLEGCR
Formally, pIC50 is defined as -log10 of the concentration c, with c in mol/L.

1. CC(=O)c1c(Cc2ccc(S(=O)(=O)N3CCC(O)CC3)cc2)c(=O)c2ccc(Cl)cc2n1-c1ccccc1 | 6.40

Notebook: pull reported pIC50 for UniProtKB P45984, entry COC(=O)c1c(Cc2ccc(S(=O)(=O)N3CCNCC3)cc2)c(=O)c2ccc(Cl)cc2n1-c1ccccc1.Cl [Compound 67, bishydrochloride] 7.31

What pIC50 appears in the records for this compound with UniProtKB P45984? `COC(=O)c1c(Cc2ccc(S(=O)(=O)NCCO)cc2)c(=O)c2ccc(Cl)cc2n1-c1ccccc1` 7.02

pIC50 of `COC(=O)c1c(Cc2ccc(S(=O)(=O)N3CCN(C)CC3)cc2)c(=O)c2ccc(Cl)cc2n1-c1ccccc1` on UniProtKB P45984? 7.06

Please state recorded pIC50 (tested on UniProtKB P45984) of COC(=O)c1c(Cc2ccc(S(=O)(=O)N3CCNCC3)cc2)c(=O)c2ccc(Cl)cc2n1-c1ccccc1.O=C(O)C(F)(F)F [Compound 66, trifluoroacetate] 7.35

* * *

- target.or.test.system: Human JNK1α1 (Homo sapiens, UniProt P45983)
- Sequence (P45983 1-384 isoform P45983-2): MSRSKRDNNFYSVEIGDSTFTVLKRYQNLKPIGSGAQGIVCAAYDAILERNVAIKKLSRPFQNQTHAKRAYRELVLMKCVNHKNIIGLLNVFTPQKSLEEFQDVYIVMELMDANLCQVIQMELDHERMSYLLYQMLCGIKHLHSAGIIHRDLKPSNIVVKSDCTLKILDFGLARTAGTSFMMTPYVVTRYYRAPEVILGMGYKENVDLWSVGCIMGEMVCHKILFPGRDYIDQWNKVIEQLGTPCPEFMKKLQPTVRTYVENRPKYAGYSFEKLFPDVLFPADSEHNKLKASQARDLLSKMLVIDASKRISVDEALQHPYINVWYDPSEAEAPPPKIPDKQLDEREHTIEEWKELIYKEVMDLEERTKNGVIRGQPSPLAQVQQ
- run.description: JNK assay in vitro, phosphorylation of GST-ATF2 with [γ-33P] ATP (JNK1)
- Type: biochemical
- run.conditions: ATP at Km (6 μM), 1 μM ATF2, 30° C. 30 min; read-out: IC50 vs. JNK1
endpoint.name: log10(IC50) (log10 of the value in nM)
log10 IC50, nM

1. CC(=O)c1c(Cc2ccc(S(=O)(=O)N3CCC(O)CC3)cc2)c(=O)c2ccc(Cl)cc2n1-c1ccccc1 [Compound 70] | 2.13
2. COC(=O)c1c(Cc2ccc(S(=O)(=O)NCCO)cc2)c(=O)c2ccc(Cl)cc2n1-c1ccccc1 [Compound 65] | 1.52
3. CC(=O)c1c(Cc2ccc(S(=O)(=O)N3CCN(C)CC3)cc2)c(=O)c2ccc(Cl)cc2n1-c1ccccc1 [Compound 72] | 2.19

Looking for the measured log10(IC50) of COC(=O)C(=O)NS(=O)(=O)c1ccc(Cc2c(C(=O)OC)n(-c3ccccc3)c3cc(Cl)ccc3c2=O)cc1 [Compound 64] , can you help? 2.78

Which log10(IC50) value is on record for COC(=O)c1c(Cc2ccc(S(=O)(=O)N(C)CCO)cc2)c(=O)c2ccc(Cl)cc2n1-c1ccccc1 [Compound 59] ? 1.35

I have this compound here, COC(=O)c1c(Cc2ccc(S(=O)(=O)N3CCN(C(=O)OC(C)(C)C)CC3)cc2)c(=O)c2ccc(Cl)cc2n1-c1ccccc1 [Compound 63] , and I need its recorded log10(IC50). 1.99

Looking for the measured log10(IC50) of CC(=O)c1c(Cc2ccc(S(=O)(=O)NCC(C)(C)O)cc2)c(=O)c2ccc(Cl)cc2n1-c1ccccc1 [Compound 88] , can you help? 2.39

log10(IC50) lookup needed for COC(=O)c1c(Cc2ccc(S(=O)(=O)N3CCOCC3)cc2)c(=O)c2ccc(Cl)cc2n1-c1ccccc1 [Compound 31] , thanks. 1.72

For the compound shown here, COC(=O)c1c(Cc2ccc(S(=O)(=O)NCC(C)(C)O)cc2)c(=O)c2ccc(Cl)cc2n1-c1ccccc1 [Compound 85] , give the reported log10(IC50). 1.68

Query (compound): COC(=O)c1c(Cc2ccc(S(=O)(=O)N3CCN(C)CC3)cc2)c(=O)c2ccc(Cl)cc2n1-c1ccccc1 [Compound 30] ; field requested: log10(IC50) 1.55

Tell me the measured log10(IC50) of COC(=O)c1c(Cc2ccc(S(=O)(=O)C(C)CO)cc2)c(=O)c2ccc(Cl)cc2n1-c1ccccc1 (centres unmarked) [Compound 117] , please. 1.51

Record request: log10(IC50) value, item COC(=O)c1c(CN2CCC(N3CCOCC3)CC2)c(=O)c2ccc(F)cc2n1-c1ccccc1 [Compound 135] 2.40

What does the data say about its log10(IC50)? Entry: CNS(=O)(=O)c1ccc(Cc2c(C(=O)OC)n(-c3ccccc3)c3cc(Cl)ccc3c2=O)cc1 [Compound 44] 1.69

Tell me the measured log10(IC50) of COC(=O)c1c(Cc2ccc(S(=O)(=O)NCCO[Si](C)(C)C(C)(C)C)cc2)c(=O)c2ccc(Cl)cc2n1-c1ccccc1 [Compound 60] , please. 3.21

* * *

- target.or.test.system: Human JNK1α1 (Homo sapiens)
- run.description: JNK assay in vitro, phosphorylation of GST-ATF2 with [γ-33P] ATP (JNK1)
- Assay type: biochemical
- run.conditions: IC50 vs. JNK1, ATP at Km (6 μM), 1 μM ATF2, 30° C. 30 min
Consider the following compounds and their measured pIC50 readings.
When answering, recall that pIC50 equals minus log10 of the concentration in mol/L, and write that number alone.

1) COC(=O)c1c(Cc2ccc(S(=O)(=O)N3CCNCC3)cc2)c(=O)c2ccc(Cl)cc2n1-c1ccccc1.O=C(O)C(F)(F)F [Compound 66, trifluoroacetate] | 7.74

Need pIC50, item COC(=O)c1c(Cc2ccc(S(=O)(=O)N3CCNCC3)cc2)c(=O)c2ccc(Cl)cc2n1-c1ccccc1.Cl [Compound 67, bishydrochloride] 7.52

* * *

- target.or.test.system: UniProt P45983
- run.description: JNK assay in vitro, phosphorylation of GST-ATF2 with [γ-33P] ATP (JNK1)
- Format: biochemical
- run.conditions: ATP at Km (6 μM), 1 μM ATF2, 30° C. 30 min; read-out: IC50 vs. JNK1
endpoint.name: IC50 (nM)
The reply should be a number in nM, with the unit left off.

Use these answered entries as a reference point.
1) CCC(=O)c1c(Cc2ccc(S(=O)(=O)N3CCN(C)CC3)cc2)c(=O)c2ccc(Cl)cc2n1-c1ccccc1 | 193
2) COC(=O)c1c(Cc2ccc(S(=O)(=O)N3CCC(O)CC3)cc2)c(=O)c2ccc(Cl)cc2n1-c1ccccc1 | 18.4
3) COC(=O)c1c(Cc2ccc(S(=O)(=O)N(C)C)cc2)c(=O)c2ccc(Cl)cc2n1-c1ccccc1 | 44.5

API: value(readout=IC50, system=UniProt P45983) for record `COC(=O)c1c(Cc2ccc(S(=O)(=O)N3CCC(O)CC3)cc2)c(=O)c2ccc(F)cc2n1-c1ccccc1` 50.2
